target: T1, Histidine-tagged human 4-1BB protein (h4-1BB-His) (human, UniProt Q07011 24-186); assay: SPR (Biacore T200), antibody on Protein A chip, h4-1BB-His injected;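 note: dissociation phase followed for 300 s, Kd derived as koff divided by kon from the kinetic fit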
T1 construct: not shown: histidine tag
MEASUREMENT_NAME: pKd
FYI, pKd means -log10 of a concentration in mol per litre.

Report pKd for 56-2A6-mHvKv-IgG2 (antibody, V domains shown) VH: QIQLVQSGPELKKPGETVKISCKASGYTFTNYGMNWVKQAPGKGFKWMGWINTYTGEPTYADDFKGRFAFSLEISASTAYLQINNLKNEDTATYFCARRDYLGAMDYWGQGTSVTVSS VL: ENVLTQSPAIMSASPGEKVTMTCRASSSVSSSYLHWYQQKSGASPKLWIYSTSNLASGVPARFSGSGSGTSYSLTISSVEAEDAATYYCQQYSAYLYTFGGGTKLEIK please.
7.85

Please answer likewise for 45-4B9-mHvKv-IgG2 (antibody, V domains shown) VH: EVQLQQSGPELVKPGASVKMSCKASGYTFTTYVMYWVKQRPGQGLEWIGYINPYNDDIRYNEKFKGKATLTSDRSSSTAYMELSSLTSEDSAVYLCARQGGDYWGQGTILTVSS VL: DVQITQSPSYLAASPGETITVNCRASKNINKYLAWYQEKPGKTNKLLIYSGSTLQSGIPSRFSGSGSGTDFTLTISSLEPEDFAVYHCQQYNEYPLTFGAGTKLEMK
6.96

What do we get for 1C4-H4K2-IgG4 (antibody, V domains shown, humanized) VH: QGQMVQSGAEVKKPGASVKLSCKTSGFTFSSSYINWLRQAPGQSLEWIAWIFAGTGGTYYNQKFTGRAQLTVDTSASTAYMELSSLRSEDTAIYYCARHSPRATLFDFWGQGTTLTVSS VL: EIVLTQSPATLSLSPGERATLSCRASSSVNHMHWYQQKPGQAPRALIYATSNLASGIPARFSGSGSGTSFTLTISSLEPEDFATYYCQQWSSNPYTFGGGTKLEIK ?
7.78

And what about the binder 5F9-H1K3-IgG4 (antibody, V domains shown, humanized) VH: QVQLQESGPGLVKPSETLSLTCTVSGFSLTTYDISWVRQPPGKGLEWIGVIWTGGGTNYNSSFMSRVTISKDTSKNQVSLKLSSVTAADTAVYYCERVDYWGQGTTVTVSS VL: DVVMTQSPLSLPVTLGQPASISCRSSQSLVHSNGNTYLHWYQQRPGQSPKLLIYKVSNRFSGVPDRFSGSGSGTAFTFKISRVEAEDVGVYYCSQNTHVPWTFGGGTKLEIK ?
8.00

# repeat for 1C4-H1K2-IgG4 (antibody, V domains shown, humanized) VH: QVQMVQSGAEVKKPGASVKLSCKASGFTFSSSYINWLRQAPGQRLEWMGWIFAGTGGTYYNQKFTGRVTITRDTSASTAYMELSSLRSEDTAIYYCARHSPRATLFDFWGQGTTLTVSS VL: EIVLTQSPATLSLSPGERATLSCRASSSVNHMHWYQQKPGQAPRALIYATSNLASGIPARFSGSGSGTSFTLTISSLEPEDFATYYCQQWSSNPYTFGGGTKLEIK
7.66
